Values compiled from patent US9133126B2.

Examples of compounds with documented half-life at 0.5 μM follow.
# method: in vitro
# condition-context: human, liver microsomes, pH 7.4

Known half-life at 0.5 μM results, listed for orientation:
Incoming: Tell me half-life at 0.5 μM reported for `NC(=O)[C@@H](CCC(F)(F)F)[C@@H](CCC(F)(F)F)C(=O)N[C@@H]1C(=O)Nc2c(Cl)cccc2-c2ccccc21`
Outgoing: ≥ 40 min

Incoming: Tell me half-life at 0.5 μM reported for `Cc1cccc2c1NC(=O)[C@@H](NC(=O)[C@H](CCC(F)(F)F)[C@H](CC1CC1)C(N)=O)c1cc(F)ccc1-2`
Outgoing: ≥ 40 min

Incoming: Tell me half-life at 0.5 μM reported for `CCC[C@H](C(N)=O)[C@@H](CCC(F)(F)F)C(=O)N[C@@H]1C(=O)Nc2ccccc2-c2ccccc21`
Outgoing: ≥ 40 min

Incoming: Tell me half-life at 0.5 μM reported for `Cc1cccc2c1NC(=O)[C@@H](NC(=O)[C@H](CCC(F)(F)F)[C@H](CCC(F)(F)F)C(N)=O)c1cc(F)ccc1-2`
Outgoing: ≥ 40 min

Incoming: Tell me half-life at 0.5 μM reported for `CCC[C@@H](C(=O)N[C@@H]1C(=O)Nc2ccccc2-c2ccccc21)[C@H](CCC(F)(F)F)C(N)=O`
Outgoing: ≥ 40 min

Others:
Incoming: Tell me half-life at 0.5 μM reported for `CCC[C@H](C(N)=O)[C@@H](CCC(F)(F)F)C(=O)N[C@@H]1C(=O)Nc2c(F)cccc2-c2ccccc21`
Outgoing: ≥ 40 min

Incoming: Tell me half-life at 0.5 μM reported for `NC(=O)[C@@H](c1ccccc1)[C@@H](CCC(F)(F)F)C(=O)N[C@@H]1C(=O)Nc2ccccc2-c2ccccc21`
Outgoing: ≥ 40 min
